# STUDY SYSTEM: CASK, O14936
# Sequence (O14936 487-570): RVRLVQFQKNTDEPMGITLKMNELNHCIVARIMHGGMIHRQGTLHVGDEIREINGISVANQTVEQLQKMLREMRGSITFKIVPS
# TEST NAME: holdup assay
# Parameters: key: below the threshold = too weak to quantify, mostly under pKd 3.1 to 4
# CONDITION: plain residues with an end cap or a label only (N-terminal biotin on a linker: ado-ado)
QUANTITY: pKd

In [3]: df
Out[3]:
                                   binder  reported_measurement
0              FVHPILQSAV [PRKCA, P17252]   below the threshold
1          GFGEERESIL [KIDINS220, Q9ULH0]   below the threshold
2  QKNKDKEYYV [NRXN3_rs746444206, Q9Y4C0]                  3.55
3            TETASVCTKV [SLC23A1, Q9UHI7]   below the threshold

Consider the record given below.
// query Quick one: pKd for EEPEERHTEL [CES2, O00748] ?
// result below the threshold
